B1: GNB5 (parent)
chain: DINSVRYYPSGDAFASGSDDATCR

Variants of: B1
ASSAY_COMMENT: protein stability index of a GFP-peptide fusion (GPS, HEK-293T) (PSI 1-6); higher = more stable;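 further: lentivirally expressed fusions sorted by FACS into six bins by GFP to DsRed ratio, PSI derived from sequencing read proportions per bin multiplied by bin number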
CONDITION_SUMMARY: c terminus: a fixed tail appended
Class fulfilled: protein stability index at least 4. Class not fulfilled: protein stability index below 4.

Solved entries:
Y7F : not fulfilled
V5P : fulfilled
D1F : not fulfilled

Does the variant `A13F` have recorded protein stability index that is 4 or more?
not fulfilled

Is the recorded value of protein stability index equal to or greater than 4 for this variant? `Y8A`
fulfilled

Assess whether reported protein stability index for `A15Q` sits at 4 or higher.
not fulfilled

These data points were gathered from the supplement of paper PMC10567573.
